Values were extracted from patent US5807535A.

test: Biodistribution of 99mTc complexes in rats; assay type: in vivo, Australian Albino Wistar Rats; conditions: rat, blood, rats, 5 min, read-out: biodistribution blood
The compounds listed here are annotated with their tissue uptake at 5 min.
measurement_kind: tissue uptake at 5 min (%ID/g)

chemical_string | measurement_kind | value_reported
O=C(O)CN(CCN(CC(=O)O)CC(=O)Nc1ccc(Cl)cc1O)CC(=O)Nc1ccc(Cl)cc1O | tissue uptake at 5 min | 0.94
Nc1ccc(O)c(NC(=O)CN(CCN(CC(=O)O)CC(=O)Nc2cc(N)ccc2O)CC(=O)O)c1 | tissue uptake at 5 min | 3.13
O=C(O)CN(CCN(CC(=O)O)CC(=O)Nc1ccccc1O)CC(=O)Nc1ccccc1O | tissue uptake at 5 min | 0.83
CC(C)(C)c1ccc(O)c(NC(=O)CN(CCN(CC(=O)O)CC(=O)Nc2cc(C(C)(C)C)ccc2O)CC(=O)O)c1 | tissue uptake at 5 min | 1.33
O=C(O)CN(CCN(CC(=O)O)CC(=O)Nc1cc([N+](=O)[O-])ccc1O)CC(=O)Nc1cc([N+](=O)[O-])ccc1O | tissue uptake at 5 min | 1.17
